- SYSTEM_UNDER_TEST: Nuclear receptor subfamily 5 group A member 2 (Homo sapiens)
- MEASUREMENT_PROTOCOL: LRH-1 (NR5A2) inverse agonists, retest, confirmation, cell-based, luminescence (AID 651613);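 note: HEK293T cells co-transfected with LRH-1 and StAR promoter luciferase reporter; 0% = vehicle wells and 100% = parental cells lacking receptor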
- CONDITION_PARAMETERS: cell-based LRH-1 luciferase reporter, inverse agonism; at 3.6 µM; stronger effect = higher value
Calls of active or inactive are those of the source. Cut-off read from the data, not from the text of the source: active = inhibition above about 42%; inactive = the rest.
Recorded inhibition for the following compounds

# COMPOUND, inhibition
data = [
    ("COc1ccc(NC(=O)CSc2ncnc3[nH]ncc23)cc1", "60.5% (active)"),
    ("CC(C)C(=O)N1CCN(c2ccc(NC(=O)c3ccc([N+](=O)[O-])o3)cc2)CC1", "59.5% (active)"),
    ("COc1ccc(Cc2c(-c3cccc(Cl)c3)nc3cc(C)c(Br)c(C)n23)c(C)c1", "41.3% (active)"),
    ("CC1(C)Cc2c(sc3nc(SCC(=O)NCc4ccco4)n(-c4ccccc4)c(=O)c23)CS1", "41.6% (active)"),
    ("COc1ccc(NC(=O)C2=CC(c3ccc(OC)c(OC)c3)=NS(=O)(=O)N2C)cc1", "56.3% (active)"),
    ("O=C(C1=C[C@@H](C2CCCCC2)C[C@@H](OCc2ccc(CO)cc2)O1)N1CCN(Cc2ccc3c(c2)OCO3)CC1", "46.2% (active)"),
    ("CCOc1ccc(C(=O)c2cc([N+](=O)[O-])ccc2Cl)cc1", "42.3% (active)"),
    ("OCC1OC(n2cnc3c(/C=C(\\O)c4ccccc4)ncnc32)C(O)C1O (stereo not given)", "-13.9% (inactive)"),
    ("NC(=O)c1cccc(-c2cnc(N)c(C(=O)c3cccnc3)n2)c1", "72.6% (active)"),
    ("Cc1cc(/C=c2/sc3nc4ccccc4n3c2=O)c(C)n1-c1ccccn1", "84.2% (active)"),
    ("O=C(Nc1ccc(F)cc1)Nc1cc(OCC(F)(F)F)cc(OCC(F)(F)F)c1", "98.5% (active)"),
    ("O=C1CC(c2ccc3c(c2)OCCO3)Oc2ccc([N+](=O)[O-])cc21 (stereo not given)", "-49.9% (inactive)"),
    ("CN1CCN(c2ccc(S(=O)(=O)N3CCCCC3)cc2NC(=O)COc2ccc([N+](=O)[O-])cc2)CC1", "59.6% (active)"),
    ("CS/C(=C\\[N+](=O)[O-])Nc1ccc(OC(F)(F)F)cc1", "83.9% (active)"),
    ("Cc1ccc(NC(=O)Cc2nnc(SCC(=O)Nc3ccc(N4CCOCC4)cc3)n2C)cc1", "59.7% (active)"),
    ("CC1(C)CC(N2CCCC2)=CC(=[N+]2CCCC2)C1", "62% (active)"),
    ("O=C(/C=C/c1ccc(O)cc1)c1ccc(NC2=C(N3CCCCC3)C(=O)c3ccccc3C2=O)cc1", "76.3% (active)"),
    ("Cn1nc(C(C)(C)C)cc1C(=O)NCc1ccc2c(c1)OCO2", "59.8% (active)"),
    ("COc1ccc(NC(=O)COC(=O)/C=C/C(=O)OCC(=O)Nc2ccc(OC)c(Cl)c2)cc1Cl", "50.8% (active)"),
    ("COc1cc(NC(=O)CN2C(=O)NC(c3ccccc3)(c3ccccc3)C2=O)c(C)cc1[N+](=O)[O-]", "46% (active)"),
    ("OC[C@@H]1CN(Cc2ccc(-c3ccccc3)cc2)C[C@H](n2cnc3c(NC4CCC4)ncnc32)O1", "53.4% (active)"),
    ("CC1CCC2(CC1)NC(=O)N(CC(=O)Nc1ccc3c(c1)CCC3)C2=O (stereo not given)", "49.1% (active)"),
    ("CN(Cc1ccccc1)C1=CC(=[N+]2CCCCC2)CC(C)(C)C1", "108% (active)"),
    ("CC1CCCN(c2ncnc3c2cnn3-c2ccc(Cl)cc2)C1 (stereo not given)", "60.3% (active)"),
    ("O=C(Nc1ccccc1Cl)c1ccc([N+](=O)[O-])o1", "63.9% (active)"),
]

Origin of the recorded values: PubChem BioAssay
